molecular target: F508delCFTR (Homo sapiens, UniProt P13569, DEL508-508); construct: expressed in transfected cells; host or cells: CFBE41o- human lung derived epithelial cells (CFBE41o-F508delCFTR-HRP), doxycycline-inducible; test: Cell Surface Expression-Horse Radish Peroxidase (CSE-HRP) Assay; format: cell-based; conditions: test compound alone, without co-corrector; read-out: EC50 (without co-corrector)
Sequence (P13569 with tags, fused parts or gaps DEL508-508): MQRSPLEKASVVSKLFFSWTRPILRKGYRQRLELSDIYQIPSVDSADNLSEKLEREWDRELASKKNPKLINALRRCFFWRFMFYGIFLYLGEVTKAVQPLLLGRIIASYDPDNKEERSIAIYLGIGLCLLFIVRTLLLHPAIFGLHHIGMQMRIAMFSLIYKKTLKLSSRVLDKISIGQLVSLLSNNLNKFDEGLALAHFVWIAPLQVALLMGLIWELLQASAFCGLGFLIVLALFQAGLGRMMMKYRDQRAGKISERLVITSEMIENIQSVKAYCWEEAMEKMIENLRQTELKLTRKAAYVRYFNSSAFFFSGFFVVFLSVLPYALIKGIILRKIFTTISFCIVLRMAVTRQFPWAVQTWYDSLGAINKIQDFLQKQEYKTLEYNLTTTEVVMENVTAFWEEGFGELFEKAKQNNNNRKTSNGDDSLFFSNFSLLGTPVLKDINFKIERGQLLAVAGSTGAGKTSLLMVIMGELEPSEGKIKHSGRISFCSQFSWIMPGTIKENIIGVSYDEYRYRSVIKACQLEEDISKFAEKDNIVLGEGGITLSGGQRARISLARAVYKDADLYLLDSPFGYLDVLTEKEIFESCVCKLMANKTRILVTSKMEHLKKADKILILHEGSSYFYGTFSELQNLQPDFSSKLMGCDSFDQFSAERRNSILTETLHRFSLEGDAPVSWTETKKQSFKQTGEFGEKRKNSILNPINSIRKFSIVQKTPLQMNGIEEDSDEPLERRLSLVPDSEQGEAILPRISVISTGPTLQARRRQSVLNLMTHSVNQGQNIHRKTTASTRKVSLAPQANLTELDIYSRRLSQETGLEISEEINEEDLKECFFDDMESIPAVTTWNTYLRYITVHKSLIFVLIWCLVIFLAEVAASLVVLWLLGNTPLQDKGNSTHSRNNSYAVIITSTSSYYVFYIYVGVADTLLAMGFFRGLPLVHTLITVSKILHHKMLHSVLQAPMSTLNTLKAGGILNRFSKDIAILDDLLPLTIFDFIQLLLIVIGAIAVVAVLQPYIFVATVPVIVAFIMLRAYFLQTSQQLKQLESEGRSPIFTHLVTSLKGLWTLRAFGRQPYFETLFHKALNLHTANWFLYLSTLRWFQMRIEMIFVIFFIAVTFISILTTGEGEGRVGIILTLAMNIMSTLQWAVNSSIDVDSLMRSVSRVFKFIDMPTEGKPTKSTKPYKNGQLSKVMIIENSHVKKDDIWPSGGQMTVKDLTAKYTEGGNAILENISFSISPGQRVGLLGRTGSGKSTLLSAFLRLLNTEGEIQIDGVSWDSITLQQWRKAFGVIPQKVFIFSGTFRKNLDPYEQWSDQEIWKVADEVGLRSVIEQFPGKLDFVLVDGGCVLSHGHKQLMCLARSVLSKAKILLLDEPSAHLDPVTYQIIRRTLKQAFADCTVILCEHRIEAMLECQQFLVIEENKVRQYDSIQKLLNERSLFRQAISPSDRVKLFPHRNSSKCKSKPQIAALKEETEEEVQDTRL
pEC50: −log10 of the molar value.
property.label: pEC50

Can you share its pEC50? I mean this compound: O=C(NS(=O)(=O)c1cccc2ccccc12)C1(c2ccc3c(c2)OC(F)(F)O3)CC1
< 5.00

###

biological target: F508delCFTR (Homo sapiens, UniProt P13569, DEL508-508); construct: expressed in transfected cells; host or cells: CFBE41o- human lung derived epithelial cells (CFBE41o-F508delCFTR-HRP), doxycycline-inducible; assay: Cell Surface Expression-Horse Radish Peroxidase (CSE-HRP) Assay; type: cell-based; conditions: without co-corrector; maximum at any tested concentration; read-out: Maximum % activity (without co-corrector);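 on Maximum % activity (without co-corrector): % of on-plate positive control chromenyl benzoic acid corrector at 2 or 3 µM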
Quick list: Emax per entry.

Use these answered entries as a reference point.
CC(C)Oc1ncc(C2CCC2)cc1C1(C(=O)NS(=O)(=O)c2cccc3ncccc23)CC1 [Example GI-22] ... > 150%
O=C(NS(=O)(=O)c1ccccc1)C1(c2cccc(Br)c2)CC1 [Example III-71] ... 50 to 150%
CCOc1cccc(OC)c1C1(C(=O)NS(=O)(=O)c2cccc3ncccc23)CC1 [Example I-45] ... > 150%

Now look at this one.
Can you share its Emax? I mean this compound: Cc1ccc(C)c(C2(C(=O)NS(=O)(=O)c3cccc4ncccc34)CC2)c1 [II-61]
> 150%

###

target: F508delCFTR (Homo sapiens, UniProt P13569, DEL508-508); construct: expressed in transfected cells; host or cells: CFBE41o- human lung derived epithelial cells (CFBE41o-F508delCFTR-HRP), doxycycline-inducible; assay: Cell Surface Expression-Horse Radish Peroxidase (CSE-HRP) Assay; type: cell-based; settings: test compound without co-corrector; read-out: EC50 (without co-corrector)
pEC50: −log10 of the molar value.
property.label: pEC50

CC(C)Oc1ncccc1C1(C(=O)NS(=O)(=O)c2cccc3c2CCCN3)CC1 ... 5.00 to 5.52

Now look at this one.
Can you share its pEC50? I mean this molecule: CCc1cnc(OCC(C)C)c(C2(C(=O)NS(=O)(=O)c3cccc4[nH]ccc34)CC2)c1
> 5.52

###

molecular target: F508delCFTR (Homo sapiens, UniProt P13569, DEL508-508); construct: expressed in transfected cells; host or cells: CFBE41o- human lung derived epithelial cells (CFBE41o-F508delCFTR-HRP), doxycycline-inducible; experiment: Cell Surface Expression-Horse Radish Peroxidase (CSE-HRP) Assay; assay type: cell-based; conditions: test compound with co-corrector; maximum at any tested concentration
property.label: Maximum % activity (with co-corrector)

Use these answered entries as a reference point.
CCc1cnc(N(C)C)c(C2(C(=O)NS(=O)(=O)c3cccc4[nH]ccc34)CC2)c1 [GII-49] ... +++ (≥350)
Cc1cnc(F)cc1C1(C(=O)NS(=O)(=O)c2cccc3ncccc23)CC1 [GIII-16] ... + (<150)
CC(C)COc1ncc(C2CCC2)cc1C1(C(=O)NS(=O)(=O)c2cccc3ncccc23)CC1 [Example GI-51] ... +++ (≥350)
COc1cc(C2(C(=O)NS(=O)(=O)c3cccc4ncccc34)CC2)c(OCC(F)F)cn1 [GIII-18] ... ++ (≥150 and <350)
CCc1cnc(N(C)C)c(C2(C(=O)NS(=O)(=O)c3cccc4ncccc34)CC2)c1 [GII-47] ... +++ (≥350)
Cc1ccc(C2(C(=O)NS(=O)(=O)c3cccc4[nH]ccc34)CC2)c(OC(C)C)n1 [Example GI-82] ... +++ (≥350)
COc1cnc(OC(C)C)c(C2(C(=O)NS(=O)(=O)c3cccc4[nH]ccc34)CC2)c1 [Example GI-75] ... +++ (≥350)
COc1cc(C2(C(=O)NS(=O)(=O)c3cccc4ncccc34)CC2)c(OCC2CC2)cn1 [Example GI-91] ... +++ (≥350)
Cc1ccc(C2(C(=O)NS(=O)(=O)c3cccc4ncccc34)CC2)c(OC(C)C)n1 [Example GI-80] ... +++ (≥350)
O=C(NS(=O)(=O)c1cccc2ncccc12)C1(c2cc(C3CC3)cnc2N2CCOCC2)CC1 [GIII-25] ... ++ (≥150 and <350)

Can you share its Maximum % activity (with co-corrector)? I mean this compound: O=C(NS(=O)(=O)c1cccc2ncccc12)C1(c2cc(Cl)cnc2C(F)(F)F)CC1 [GIII-2]
+ (<150)

Can you share its Maximum % activity (with co-corrector)? I mean this compound: Cc1ccc2c(S(=O)(=O)NC(=O)C3(c4nc(OCC(C)C)ccc4OC(C)C)CC3)cccc2n1 [Example GI-90]
+++ (≥350)

###

Quick list: EC50 per entry.
molecular target: F508delCFTR (Homo sapiens, UniProt P13569, DEL508-508); construct: expressed in transfected cells; host or cells: CFBE41o- human lung derived epithelial cells (CFBE41o-F508delCFTR-HRP), doxycycline-inducible; test: Cell Surface Expression-Horse Radish Peroxidase (CSE-HRP) Assay; format: cell-based; details: test compound without co-corrector; read-out: EC50 (without co-corrector)

CCc1cnc(OCC(C)C)c(C2(C(=O)NS(=O)(=O)c3cccc4ncccc34)CC2)c1 ... < 3 µM
COc1cc(C2(C(=O)NS(=O)(=O)c3cccc4ncccc34)CC2)c(Cl)cn1 ... 3 to 10 µM
O=C(NS(=O)(=O)c1cccc2[nH]ccc12)C1(c2cc(C3CC3)cnc2N2CCCC2)CC1 ... 3 to 10 µM
COc1cc(C2(C(=O)NS(=O)(=O)c3cccc4ncccc34)CC2)c(OCC2CC2)cn1 ... 3 to 10 µM

Enter reported EC50 observed with F508delCFTR (Homo sapiens, UniProt P13569, DEL508-508) for Cc1ccc2c(S(=O)(=O)NC(=O)C3(c4cc(OC(C)C)cnc4OC(C)C)CC3)cccc2n1
3 to 10 µM

Enter reported EC50 observed with F508delCFTR (Homo sapiens, UniProt P13569, DEL508-508) for COc1ncc(C2(C(=O)NS(=O)(=O)c3cccc4c3CCCN4)CC2)c(OC)n1
> 10 µM

Enter reported EC50 observed with F508delCFTR (Homo sapiens, UniProt P13569, DEL508-508) for O=C(NS(=O)(=O)c1cccc2ncccc12)C1(c2ccc(C(F)(F)F)nc2C2CCC2)CC1
3 to 10 µM

Enter reported EC50 observed with F508delCFTR (Homo sapiens, UniProt P13569, DEL508-508) for CCOc1ncc(CC)cc1C1(C(=O)NS(=O)(=O)c2cccc3ncccc23)CC1
3 to 10 µM

###

target: F508delCFTR (Homo sapiens, UniProt P13569, DEL508-508); construct: expressed in transfected cells; host or cells: CFBE41o- human lung derived epithelial cells (CFBE41o-F508delCFTR-HRP), doxycycline-inducible; experiment: Cell Surface Expression-Horse Radish Peroxidase (CSE-HRP) Assay; type: cell-based; details: with co-corrector; maximum at any tested concentration
property.label: Maximum % activity (with co-corrector)

Use these answered entries as a reference point.
COc1ccc(C2CC2)c(C)c1C1(C(=O)NS(=O)(=O)c2cccc3nc(C)ccc23)CC1 [II-52] ... +++ (≥350)
CCc1cnc(OC(C)C)c(C2(C(=O)NS(=O)(=O)c3cccc4ncccc34)CC2)c1 [Example GI-13] ... +++ (≥350)
Cc1ccc(C)c(C2(C(=O)NS(=O)(=O)c3cccc4nc(N)ccc34)CC2)c1 [Example I-81] ... +++ (≥350)
CCOc1ccc(C)cc1C1(C(=O)NS(=O)(=O)c2cccc3nc(C)ccc23)CC1 [Example I-83] ... +++ (≥350)
O=C(NS(=O)(=O)c1ccccc1)C1(c2ccc(Cl)c(Cl)c2)CC1 [Example III-34] ... ++ (≥150 and <350)
O=C(NS(=O)(=O)c1cccc(C(F)(F)F)c1)C1(c2ccc(Cl)cc2Cl)CC1 [Example III-15] ... ++ (≥150 and <350)

Can you share its Maximum % activity (with co-corrector)? I mean this compound: CCc1ccc(OC)c(C2(C(=O)NS(=O)(=O)c3cccc4nc(N)ccc34)CC2)c1 [II-71]
+++ (≥350)

###

biological target: F508delCFTR (Homo sapiens, UniProt P13569, DEL508-508); construct: expressed in transfected cells; host or cells: CFBE41o- human lung derived epithelial cells (CFBE41o-F508delCFTR-HRP), doxycycline-inducible; assay: Cell Surface Expression-Horse Radish Peroxidase (CSE-HRP) Assay; format: cell-based; settings: test compound without co-corrector; read-out: EC50 (without co-corrector)
pEC50: −log10 of the molar value.
Quick list: pEC50 per entry.

Use these answered entries as a reference point.
CC(C)Oc1ncc(C2CC2)cc1C1(C(=O)NS(=O)(=O)c2cccc3[nH]ccc23)CC1 ... > 5.52
CCc1ccncc1C1(C(=O)NS(=O)(=O)c2cccc3c2CCCN3)CC1 ... < 5.00
Cc1cnc(OCC(C)C)c(C2(C(=O)NS(=O)(=O)c3cccc4[nH]ccc34)CC2)c1 ... > 5.52

Enter reported pEC50 observed with F508delCFTR (Homo sapiens, UniProt P13569, DEL508-508) for Cc1ccc2c(S(=O)(=O)NC(=O)C3(c4nc(OCC(C)C)ccc4OC(C)C)CC3)cccc2n1
> 5.52
